Values were extracted from the supplement of paper PMC11246515.

Please go through the items and note down their total protein half-life in vivo.
protocol: total protein half-life in vivo (active degradation + dilution); higher = more stable protein
experimental.parameters: E. coli NCM3722 delta-clpP delta-lon delta-hslV; growth: N-lim chemostat; doubling time 6 h
API: value field is a number in h; no unit string.

Query: Need total protein half-life in vivo, item MSTLRLLISDSYDPWFNLAVEECIFRQMPATQRVLFLWRNADTVVIGRAQNPWKECNTRRMEEDNVRLARRSSGGGAVFHDLGNTCFTFMAGKPEYDKTISTSIVLNALNALGVSAEASGRNDLVVKTVEGDRKVSGSAYRETKDRGFHHGTLLLNADLSRLANYLNPDKKKLAAKGITSVRSRVTNLTELLPGITHEQVCEAITEAFFAHYGERVEAEIISPNKTPDLPNFAETFARQSSWEWNFGQAPAFSHLLDERFTWGGVELHFDVEKGHITRAQVFTDSLNPAPLEALAGRLQGCLYRADMLQQECEALLVDFPEQEKELRELSAWMAGAVR
Response: 4.61

Query: Need total protein half-life in vivo, item MSSRNNPARVAIVMGSKSDWATMQFAAEIFEILNVPHHVEVVSAHRTPDKLFSFAESAEENGYQVIIAGAGGAAHLPGMIAAKTLVPVLGVPVQSAALSGVDSLYSIVQMPRGIPVGTLAIGKAGAANAALLAAQILATHDKELHQRLNDWRKAQTDEVLENPDPRGAA [P0AG18]
Response: 5.15

Query: Need total protein half-life in vivo, item MDQAGIIRDLLIWLEGHLDQPLSLDNVAAKAGYSKWHLQRMFKDVTGHAIGAYIRARRLSKSAVALRLTARPILDIALQYRFDSQQTFTRAFKKQFAQTPALYRRSPEWSAFGIRPPLRLGEFTMPEHKFVTLEDTPLIGVTQSYSCSLEQISDFRHEMRYQFWHDFLGNAPTIPPVLYGLNETRPSQDKDDEQEVFYTTALAQDQADGYVLTGHPVMLQGGEYVMFTYEGLGTGVQEFILTVYGTCMPMLNLTRRKGQDIERYYPAEDAKAGDRPINLRCELLIPIRR [P0ACI0]
Response: 5.25

* * *

Please go through the items and note down their total protein half-life in vivo.
protocol: total protein half-life in vivo (active degradation + dilution); higher = more stable protein
experimental.parameters: wild type E. coli NCM3722; growth: N-lim chemostat; doubling time 12 h
API: value field is a number in h; no unit string.

Query: Need total protein half-life in vivo, item MATNAKPVYKRILLKLSGEALQGTEGFGIDASILDRMAQEIKELVELGIQVGVVIGGGNLFRGAGLAKAGMNRVVGDHMGMLATVMNGLAMRDALHRAYVNARLMSAIPLNGVCDSYSWAEAISLLRNNRVVILSAGTGNPFFTTDSAACLRGIEIEADVVLKATKVDGVFTADPAKDPTATMYEQLTYSEVLEKELKVMDLAAFTLARDHKLPIRVFNMNKPGALRRVVMGEKEGTLITE [P0A7E9]
Response: 8.29

Query: Need total protein half-life in vivo, item MEKLRVGIVFGGKSAEHEVSLQSAKNIVDAIDKSRFDVVLLGIDKQGQWHVSDASNYLLNADDPAHIALRPSATSLAQVPGKHEHQLIDAQNGQPLPTVDVIFPIVHGTLGEDGSLQGMLRVANLPFVGSDVLASAACMDKDVTKRLLRDAGLNIAPFITLTRANRHNISFAEVESKLGLPLFVKPANQGSSVGVSKVTSEEQYAIAVDLAFEFDHKVIVEQGIKGREIECAVLGNDNPQASTCGEIVLTSDFYAYDTKYIDEDGAKVVVPAAIAPEINDKIRAIAVQAYQTLGCAGMARVDVFLTPENEVVINEINTLPGFTNISMYPKLWQASGLGYTDLITRLIELALERHAADNALKTTM [P0A6J8]
Response: 8.61

Query: Need total protein half-life in vivo, item MKNSKAILQVPGTMKIISAEIPVPKEDEVLIKVEYVGICGSDVHGFESGPFIPPKDPNQEIGLGHECAGTVVAVGSRVRKFKPGDRVNIEPGVPCGHCRYCLEGKYNICPDVDFMATQPNYRGALTHYLCHPESFTYKLPDNMDTMEGALVEPAAVGMHAAMLADVKPGKKIIILGAGCIGLMTLQACKCLGATEIAVVDVLEKRLAMAEQLGATVVINGAKEDTIARCQQFTEDMGADIVFETAGSAVTVKQAPYLVMRGGKIMIVGTVPGDSAINFLKINREVTIQTVFRYANRYPVTIEAISSGRFDVKSMVTHIYDYRDVQQAFEESVNNKRDIIKGVIKISD
Response: 5.18

Query: Need total protein half-life in vivo, item MSTLEPAAQSKPPGGFKLWLSQLQMKHGRKLVIALPYIWLILLFLLPFLIVFKISLAEMARAIPPYTELMEWADGQLSITLNLGNFLQLTDDPLYFDAYLQSLQVAAISTFCCLLIGYPLAWAVAHSKPSTRNILLLLVILPSWTSFLIRVYAWMGILKNNGVLNNFLLWLGVIDQPLTILHTNLAVYIGIVYAYVPFMVLPIYTALIRIDYSLVEAALDLGARPLKTFFTVIVPLTKGGIIAGSMLVFIPAVGEFVIPELLGGPDSIMIGRVLWQEFFNNRDWPVASAVAIIMLLLLIVPIMWFHKHQQKSVGEHG
Response: 10.6

Query: Need total protein half-life in vivo, item MSNKNVNVRKSQEITFCLLAGILMFMAMMVAGRAEAGVALGATRVIYPAGQKQEQLAVTNNDENSTYLIQSWVENADGVKDGRFIVTPPLFAMKGKKENTLRILDATNNQLPQDRESLFWMNVKAIPSMDKSKLTENTLQLAIISRIKLYYRPAKLALPPDQAAEKLRFRRSANSLTLINPTPYYLTVTELNAGTRVLENALVPPMGESTVKLPSDAGSNITYRTINDYGALTPKMTGVME
Response: 14.8

* * *

Please go through the items and note down their total protein half-life in vivo.
protocol: total protein half-life in vivo (active degradation + dilution); higher = more stable protein
experimental.parameters: E. coli NCM3722 delta-hslV; growth: N-lim chemostat; doubling time 6 h
API: value field is a number in h; no unit string.

Query: Need total protein half-life in vivo, item MSAQKPGLHPRNRHHSRYDLATLCQVNPELRQFLTLTPAGEQSVDFANPLAVKALNKALLAHFYAVANWDIPDGFLCPPVPGRADYIHHLADLLAEASGTIPANASILDIGVGANCIYPLIGVHEYGWRFTGSETSSQALSSAQAIISSNPGLNRAIRLRRQKESGAIFNGIIHKNEQYDATLCNPPFHDSAAAARAGSERKRRNLGLNKDDALNFGGQQQELWCEGGEVTFIKKMIEESKGFAKQVMWFTSLVSRGENLPPLYRALTDVGAVKVVKKEMAQGQKQSRFIAWTFMNDEQRRRFVNRQR
Response: 5.27

Query: Need total protein half-life in vivo, item MGLPPLSKIPLILRPQAWLHRRHYGEVLSPIRWWGRIPFIFYLVSMFVGWLERKRSPLDPVVRSLVSARIAQMCLCEFCVDITSMKVAERTGSSDKLLAVADWRQSPLFSDEERLALEYAEAASVTPPTVDDALRTRLAAHFDAQALTELTALIGLQNLSARFNSAMDIPAQGLCRIPEKRS
Response: 6.22

Query: Need total protein half-life in vivo, item MMVIRPVERSDVSALMQLASKTGGGLTSLPANEATLSARIERAIKTWQGELPKSEQGYVFVLEDSETGTVAGICAIEVAVGLNDPWYNYRVGTLVHASKELNVYNALPTLFLSNDHTGSSELCTLFLDPDWRKEGNGYLLSKSRFMFMAAFRDKFNDKVVAEMRGVIDEHGYSPFWQSLGKRFFSMDFSRADFLCGTGQKAFIAELMPKHPIYTHFLSQEAQDVIGQVHPQTAPARAVLEKEGFRYRNYIDIFDGGPTLECDIDRVRAIRKSRLVEVAEGQPAQGDFPACLVANENYHHFRVVLVRTDPATERLILTAAQLDALKCHAGDRVRLVRLCAEEKTA [P0AE37]
Response: 2.96

* * *

protocol: total protein half-life in vivo (active degradation + dilution); higher = more stable protein
experimental.parameters: wild type E. coli NCM3722; growth: C-lim chemostat; doubling time 6 h
Please go through the items and note down their total protein half-life in vivo.
API: value field is a number in h; no unit string.

Query: Need total protein half-life in vivo, item MRRLLSVAPVLLWLITPLAFAQLPGITSQPLPGGGQSWSLPVQTLVFITSLTFIPAILLMMTSFTRIIIVFGLLRNALGTPSAPPNQVLLGLALFLTFFIMSPVIDKIYVDAYQPFSEEKISMQEALEKGAQPLREFMLRQTREADLGLFARLANTGPLQGPEAVPMRILLPAYVTSELKTAFQIGFTIFIPFLIIDLVIASVLMALGMMMVPPATIALPFKLMLFVLVDGWQLLVGSLAQSFYS [P0AC05]
Response: 6.05

Query: Need total protein half-life in vivo, item MGSINLRIDDELKARSYAALEKMGVTPSEALRLMLEYIADNERLPFKQTLLSDEDAELVEIVKERLRNPKPVRVTLDEL [P0C079]
Response: 1.45

Query: Need total protein half-life in vivo, item MDIIFYHPTFDTQWWIEALRKAIPQARVRAWKSGDNDSADYALVWHPPVEMLAGRDLKAVFALGAGVDSILSKLQAHPEMLNPSVPLFRLEDTGMGEQMQEYAVSQVLHWFRRFDDYRIQQNSSHWQPLPEYHREDFTIGILGAGVLGSKVAQSLQTWRFPLRCWSRTRKSWPGVQSFAGREELSAFLSQCRVLINLLPNTPETVGIINQQLLEKLPDGAYLLNLARGVHVVEDDLLAALDSGKVKGAMLDVFNREPLPPESPLWQHPRVTITPHVAAITRPAEAVEYISRTIAQLEKGERVCGQVDRARGY
Response: 5.64

Query: Need total protein half-life in vivo, item MPSTPEEKKKVLTRVRRIRGQIDALERSLEGDAECRAILQQIAAVRGAANGLMAEVLESHIRETFDRNDCYSREVSQSVDDTIELVRAYLK [P0AAP3]
Response: 5.52

Query: Need total protein half-life in vivo, item MKKVLLIILLLLVVLGIAAGVGVWKVRHLADSKLLIKEETIFTLKPGTGRLALGEQLYADKIINRPRVFQWLLRIEPDLSHFKAGTYRFTPQMTVREMLKLLESGKEAQFPLRLVEGMRLSDYLKQLREAPYIKHTLSDDKYATVAQALELENPEWIEGWFWPDTWMYTANTTDVALLKRAHKKMVKAVDSAWEGRADGLPYKDKNQLVTMASIIEKETAVASERDKVASVFINRLRIGMRLQTDPTVIYGMGERYNGKLSRADLETPTAYNTYTITGLPPGAIATPGADSLKAAAHPAKTPYLYFVADGKGGHTFNTNLASHNKSVQDYLKVLKEKNAQ
Response: 6.65

Query: Need total protein half-life in vivo, item MAEAQNDPLLPGYSFNAHLVAGLTPIEANGYLDFFIDRPLGMKGYILNLTIRGQGVVKNQGREFVCRPGDILLFPPGEIHHYGRHPEAREWYHQWVYFRPRAYWHEWLNWPSIFANTGFFRPDEAHQPHFSDLFGQIINAGQGEGRYSELLAINLLEQLLLRRMEAINESLHPPMDNRVREACQYISDHLADSNFDIASVAQHVCLSPSRLSHLFRQQLGISVLSWREDQRISQAKLLLSTTRMPIATVGRNVGFDDQLYFSRVFKKCTGASPSEFRAGCEEKVNDVAVKLS [P0A9E0]
Response: 1.42

Query: Need total protein half-life in vivo, item MKLNIRAQTAQNQHNNSPIVLVHGLFGSLDNLGVLARDLVNDHNIIQVDMRNHGLSPRDPVMNYPAMAQDLVDTLDAQQIDKATFIGHSMGGKAVMALTALASDRIDKLVAIDIAPVDYHVRRHDEIFAAINAVSESDAQTRQQAAAIMRQHLNEEGVIQFLLKSFVDGEWRFNVPVLWDQYPHIVGWEKIPAWDHPALFIPGGNSPYVSEQYRDDLLAQFPQARAHVIAGAGHWVHAEKPDAVLRAIRRYLND
Response: 5.74

Query: Need total protein half-life in vivo, item MERNKLARQIIDTCLEMTRLGLNQGTAGNVSVRYQDGMLITPTGIPYEKLTESHIVFIDGNGKHEEGKLPSSEWRFHMAAYQSRPDANAVVHNHAVHCTAVSILNRSIPAIHYMIAAAGGNSIPCAPYATFGTRELSEHVALALKNRKATLLQHHGLIACEVNLEKALWLAHEVEVLAQLYLTTLAITDPVPVLSDEEIAVVLEKFKTYGLRIEE [P0AB87]
Response: 4.78

Query: Need total protein half-life in vivo, item MVSSFTSAPRSGFYYFAQGWKLVSQPGIRRFVILPLLVNILLMGGAFWWLFTQLDVWIPTLMSYVPDWLQWLSYLLWPLAVISVLLVFGYFFSTIANWIAAPFNGLLAEQLEARLTGATPPDTGIFGIMKDVPRIMKREWQKFAWYLPRAIVLLILYFIPGIGQTVAPVLWFLFSAWMLAIQYCDYPFDNHKVPFKEMRTALRTRKITNMQFGALTSLFTMIPLLNLFIMPVAVCGATAMWVDCYRDKHAMWR [P0A6J3]
Response: 5.49

Query: Need total protein half-life in vivo, item MKKILLMLSLLFFTTAGFSEVSDTLVTGGYDKQAMSDAIKHARKETDKFIEVMNKKDADTFAVKAPITDHGRTEHFWLTDVTYSNGMFIGVISNDPGIVTNVEYGQEWKIKKEDISDWMYTRGDKIYGGYTIDPLLVTYPKEEADELRAKLVR
Response: 5.15

Query: Need total protein half-life in vivo, item MIEFVYPHTQLVAGVDEVGRGPLVGAVVTAAVILDPARPIAGLNDSKKLSEKRRLALYEEIKEKALSWSLGRAEPHEIDELNILHATMLAMQRAVAGLHIAPEYVLIDGNRCPKLPMPAMAVVKGDSRVPEISAASILAKVTRDAEMAALDIVFPQYGFAQHKGYPTAFHLEKLAEHGATEHHRRSFGPVKRALGLAS
Response: 2.67

Query: Need total protein half-life in vivo, item MVTFHTNHGDIVIKTFDDKAPETVKNFLDYCREGFYNNTIFHRVINGFMIQGGGFEPGMKQKATKEPIKNEANNGLKNTRGTLAMARTQAPHSATAQFFINVVDNDFLNFSGESLQGWGYCVFAEVVDGMDVVDKIKGVATGRSGMHQDVPKEDVIIESVTVSE
Response: 6.03
